Data origin, for the record: ChEMBL document CHEMBL3885861

Consider the following compounds; for each one, report its APTT.
Species: Rattus norvegicus
assay explanation: Open TG-GATES - Regimen: Daily Repeat
Assay type: toxicity, organism-based, Sprague-Dawley
Set-up: regimen Daily Repeat, gender Male, age 6 weeks
assay context: in vivo, po, 100 mg/kg, 72 h, tissue Blood, route gavage, dose level Low, time 3 day
Numbers only, in s.

compound: NC(N)=Nc1nc(CSCCC(N)=NS(N)(=O)=O)cs1 [FAMOTIDINE]
APTT (s): 19.8
--
compound: CCOc1ccc(NC(=O)CC(C)O)cc1 (stereo not given) [BUCETIN]
APTT (s): 17.5
--
compound: COc1ccc2[nH]c([S+]([O-])Cc3ncc(C)c(OC)c3C)nc2c1 (stereo not given) [OMEPRAZOLE]
APTT (s): 19
--
compound: COC1=CC(=O)C[C@@H](C)[C@]12Oc1c(Cl)c(OC)cc(OC)c1C2=O [GRISEOFULVIN]
APTT (s): 19.6

Okay, next one:
Input: Please give the measured APTT for this compound: CCOC(=O)CCC(=O)O[C@H]1[C@H](O[C@@H]2[C@@H](C)[C@H](O[C@H]3C[C@@](C)(OC)[C@@H](O)[C@H](C)O3)[C@@H](C)C(=O)O[C@H](CC)[C@@](C)(O)[C@H](O)[C@@H](C)C(=O)[C@H](C)C[C@@]2(C)O)O[C@H](C)C[C@@H]1N(C)C [ERYTHROMYCIN ETHYLSUCCINATE]
Output: 21.4

###

Consider the following compounds; for each one, report its TC.
Organism: Rattus norvegicus
assay explanation: Open TG-GATES - Regimen: Single
Format: toxicity, organism-based, Sprague-Dawley
Parameters: regimen Single, gender Male, age 6 weeks
assay context: in vivo, po, 100 mg/kg, 9 h, tissue Plasma, route gavage, dose level High

The cases that follow already have their TC on record.
smiles entry: CC1=C(/C=C/C(C)=C/C=C/C(C)=C/CO)C(C)(C)CCC1
TC: 65.6 mg/dL
//
smiles entry: CN(C)CCCN1c2ccccc2CCc2ccccc21
TC: 80.8 mg/dL
//
smiles entry: CN(C)CCN(Cc1cccs1)c1ccccn1
TC: 68 mg/dL

Okay, next one:
Input: Please give the measured TC for this compound: CN(C)CCCN1c2ccccc2CCc2ccc(Cl)cc21
Output: 72.8 mg/dL

###

Species on record: Rattus norvegicus
assay explanation: Open TG-GATES - Regimen: Single
Type: toxicity, organism-based, Sprague-Dawley
Design: regimen Single, gender Male, age 6 weeks
assay context: in vivo, po, 10 mg/kg, 3 h, tissue Blood, route gavage, dose level Low
parameter measured: Plat
Don't forget the unit after the number, please.

The cases that follow already have their Plat on record.
smiles entry: CC1=C(/C=C/C(C)=C/C=C/C(C)=C/CO)C(C)(C)CCC1
Plat: 124.2 x10_4/uL

smiles entry: CN(C)CCN(Cc1cccs1)c1ccccn1
Plat: 111.1 x10_4/uL

smiles entry: CN(C)CCCN1c2ccccc2CCc2ccccc21
Plat: 108.8 x10_4/uL

Okay, next one:
Input: Please give the measured Plat for this compound: CN(C)CCCN1c2ccccc2CCc2ccc(Cl)cc21
Output: 129 x10_4/uL

###

Species: Rattus norvegicus
assay explanation: Open TG-GATES - Regimen: Single
Assay type: toxicity, organism-based, Sprague-Dawley
Parameters: regimen Single, gender Male, age 6 weeks
assay context: in vivo, po, 100 mg/kg, 6 h, tissue Blood, route gavage, dose level Low
Consider the following compounds; for each one, report its APTT.
One number for each entry, in s.

The cases that follow already have their APTT on record.
compound: COc1ccc2[nH]c([S+]([O-])Cc3ncc(C)c(OC)c3C)nc2c1 (centres undefined) [OMEPRAZOLE]
parameter measured: APTT
value observed: 19.2

compound: COC1=CC(=O)C[C@@H](C)[C@]12Oc1c(Cl)c(OC)cc(OC)c1C2=O [GRISEOFULVIN]
parameter measured: APTT
value observed: 17.8

compound: CCOC(=O)CCC(=O)O[C@H]1[C@H](O[C@@H]2[C@@H](C)[C@H](O[C@H]3C[C@@](C)(OC)[C@@H](O)[C@H](C)O3)[C@@H](C)C(=O)O[C@H](CC)[C@@](C)(O)[C@H](O)[C@@H](C)C(=O)[C@H](C)C[C@@]2(C)O)O[C@H](C)C[C@@H]1N(C)C [ERYTHROMYCIN ETHYLSUCCINATE]
parameter measured: APTT
value observed: 22.8

Okay, next one:
Input: Please give the measured APTT for this compound: NC(N)=Nc1nc(CSCCC(N)=NS(N)(=O)=O)cs1 [FAMOTIDINE]
Output: 18.5

###

Consider the following molecules; for each one, report its MCH.
Species on record: Rattus norvegicus
assay explanation: Open TG-GATES - Regimen: Daily Repeat
Type: toxicity, organism-based, Sprague-Dawley
Design: regimen Daily Repeat, gender Male, age 6 weeks
assay context: in vivo, po, 300 mg/kg, 72 h, tissue Blood, route gavage, dose level Middle, time 3 day
Answers are plain numbers, in pg.

molecule: COc1ccc2[nH]c([S+]([O-])Cc3ncc(C)c(OC)c3C)nc2c1 (stereo not given)
parameter measured: MCH
readout units: pg
value observed: 20.9

Your task in this section: give MCH for each listed record.
1. CCOc1ccc(NC(=O)CC(C)O)cc1 (stereo not given)
2. COC1=CC(=O)C[C@@H](C)[C@]12Oc1c(Cl)c(OC)cc(OC)c1C2=O
3. NC(N)=Nc1nc(CSCCC(N)=NS(N)(=O)=O)cs1
4. CCOC(=O)CCC(=O)O[C@H]1[C@H](O[C@@H]2[C@@H](C)[C@H](O[C@H]3C[C@@](C)(OC)[C@@H](O)[C@H](C)O3)[C@@H](C)C(=O)O[C@H](CC)[C@@](C)(O)[C@H](O)[C@@H](C)C(=O)[C@H](C)C[C@@]2(C)O)O[C@H](C)C[C@@H]1N(C)C [ERYTHROMYCIN ETHYLSUCCINATE]

Output:
1. 20.5
2. 20.8
3. 23
4. 21.5

###

Consider the following compounds; for each one, report its LIVER.
Species: Rattus norvegicus
assay explanation: Open TG-GATES - Regimen: Single
Type: toxicity, organism-based, Sprague-Dawley
Set-up: regimen Single, gender Male, age 6 weeks
assay context: in vivo, po, 1000 mg/kg, 6 h, tissue Liver, route gavage, dose level High

The cases that follow already have their LIVER on record.
compound: COC1=CC(=O)C[C@@H](C)[C@]12Oc1c(Cl)c(OC)cc(OC)c1C2=O
value observed: 9.2 g
--
compound: CC(C)OC(=O)C(C)(C)Oc1ccc(C(=O)c2ccc(Cl)cc2)cc1 [FENOFIBRATE]
value observed: 7.4 g
--
compound: NC(N)=Nc1nc(CSCCC(N)=NS(N)(=O)=O)cs1
value observed: 9 g
--
compound: COc1ccc2[nH]c([S+]([O-])Cc3ncc(C)c(OC)c3C)nc2c1 (stereo not given)
value observed: 9.8 g

Okay, next one:
Input: Please give the measured LIVER for this compound: CCOC(=O)CCC(=O)O[C@H]1[C@H](O[C@@H]2[C@@H](C)[C@H](O[C@H]3C[C@@](C)(OC)[C@@H](O)[C@H](C)O3)[C@@H](C)C(=O)O[C@H](CC)[C@@](C)(O)[C@H](O)[C@@H](C)C(=O)[C@H](C)C[C@@]2(C)O)O[C@H](C)C[C@@H]1N(C)C [ERYTHROMYCIN ETHYLSUCCINATE]
Output: 9.1 g

###

Species on record: Rattus norvegicus
assay explanation: Open TG-GATES - Regimen: Daily Repeat
Format: toxicity, organism-based, Sprague-Dawley
Design: regimen Daily Repeat, gender Male, age 6 weeks
assay context: in vivo, po, 100 mg/kg, […], tissue Kidney, route gavage, dose level Low, time 14 day
parameter measured: KIDNEY_R (g)
Give bare numbers, in g.

compound: CCOC(=O)CCC(=O)O[C@H]1[C@H](O[C@@H]2[C@@H](C)[C@H](O[C@H]3C[C@@](C)(OC)[C@@H](O)[C@H](C)O3)[C@@H](C)C(=O)O[C@H](CC)[C@@](C)(O)[C@H](O)[C@@H](C)C(=O)[C@H](C)C[C@@]2(C)O)O[C@H](C)C[C@@H]1N(C)C [ERYTHROMYCIN ETHYLSUCCINATE]
KIDNEY_R, g: 1.3

Your task in this section: give KIDNEY_R for each listed record.
1. CCOc1ccc(NC(=O)CC(C)O)cc1 (stereo not given)
2. COC1=CC(=O)C[C@@H](C)[C@]12Oc1c(Cl)c(OC)cc(OC)c1C2=O
3. COc1ccc2[nH]c([S+]([O-])Cc3ncc(C)c(OC)c3C)nc2c1 (stereo not given)
4. NC(N)=Nc1nc(CSCCC(N)=NS(N)(=O)=O)cs1

Output:
[1.2, 1.2, 1.3, 1.2]

###

Species on record: Rattus norvegicus
assay explanation: Open TG-GATES - Regimen: Daily Repeat
Format: toxicity, organism-based, Sprague-Dawley
Parameters: regimen Daily Repeat, gender Male, age 6 weeks
assay context: in vivo, po, 300 mg/kg, […], tissue Kidney, route gavage, dose level Middle, time 14 day
Consider the following molecules; for each one, report its KIDNEY_TOTAL.
Give bare numbers, in g.

molecule: COC1=CC(=O)C[C@@H](C)[C@]12Oc1c(Cl)c(OC)cc(OC)c1C2=O
KIDNEY_TOTAL [g]: 2.6

Your task in this section: give KIDNEY_TOTAL for each listed record.
1. CCOC(=O)CCC(=O)O[C@H]1[C@H](O[C@@H]2[C@@H](C)[C@H](O[C@H]3C[C@@](C)(OC)[C@@H](O)[C@H](C)O3)[C@@H](C)C(=O)O[C@H](CC)[C@@](C)(O)[C@H](O)[C@@H](C)C(=O)[C@H](C)C[C@@]2(C)O)O[C@H](C)C[C@@H]1N(C)C [ERYTHROMYCIN ETHYLSUCCINATE]
2. CCOc1ccc(NC(=O)CC(C)O)cc1 (stereo not given)

Output:
[2.6, 2.7]

Your task in this section: give KIDNEY_TOTAL for each listed record.
1. COc1ccc2[nH]c([S+]([O-])Cc3ncc(C)c(OC)c3C)nc2c1 (stereo not given)
2. NC(N)=Nc1nc(CSCCC(N)=NS(N)(=O)=O)cs1

Output:
1. 2.5
2. 2.4
